Reference for the values: patent US20250295679A1

Assay: Solubility in buffers, water and simulated vaginal fluid at 37° C.
Settings: 37 °C, water, thermodynamic from solid
PROPERTY_NAME: solubility at 0.5 h

Req: Quick check: solubility at 0.5 h of CCOC(=O)[C@H](C)N[P@](=O)(COCCn1cnc2c(OC)nc(N)nc21)OCc1ccccc1.O=C(O)/C=C/C(=O)O (single isomer, unassigned) [Compound III] ?
Resp: > 2000 µg/mL

====

Test: Hygroscopicity by DVS at 25° C.
Format: physicochemical
Conditions: up to / in 95% RH, DVS 25° C.
PROPERTY_NAME: Water uptake

Req: Quick check: Water uptake of CCOC(=O)C(C)NP(=O)(COCCn1cnc2c(OC)nc(N)nc21)OCc1ccccc1.CCOC(=O)C(C)NP(=O)(COCCn1cnc2c(OC)nc(N)nc21)OCc1ccccc1.O=C(O)C=CC(=O)O (mixture of isomers) [Compound I hemifumarate] ?
Resp: ~6.9%

====

CC50 overview
System: HEK293 cells
Assay: In vitro cytotoxicity, XTT, five days

[
  {
    "COMPOUND": "CCOC(=O)[C@H](C)N[P@](=O)(COCCn1cnc2c(OC)nc(N)nc21)OCc1ccccc1 (single isomer, unassigned; isomer 1) [AB12280 Isomer 1]",
    "CC50": "< 160 nM"
  }
]

Req: Quick check: CC50 of CCOC(=O)[C@H](C)N[P@@](=O)(COCCn1cnc2c(OC)nc(N)nc21)OCc1ccccc1 (single isomer, unassigned; isomer 2) [AB12280 Isomer 2] ?
Resp: < 160 nM

====

Experiment: Solubility in buffers, water and simulated vaginal fluid at 37° C.
Conditions: 37 °C, pH 4.5, aqueous buffer, thermodynamic from solid
PROPERTY_NAME: solubility at 0.5 h

Req: Quick check: solubility at 0.5 h of CCOC(=O)[C@H](C)N[P@](=O)(COCCn1cnc2c(OC)nc(N)nc21)OCc1ccccc1.O=C(O)/C=C/C(=O)O (single isomer, unassigned) [Compound III] ?
Resp: > 2000 µg/mL

====

Tested on: C33A cells
Assay: In vitro cytotoxicity, XTT, five days
Details: read-out: C33A CC50, proliferating C33A cells
PROPERTY_NAME: CC50 (nM)
Report only the number, with the unit nM understood.

Req: Quick check: CC50 of CCOC(=O)[C@H](C)N[P@](=O)(COCCn1cnc2c(OC)nc(N)nc21)OCc1ccccc1 (single isomer, unassigned; isomer 1) [AB12280 Isomer 1] ?
Resp: 200

====

This document collects CC50 values reported for Hs27 cells.
Include the unit right after the number.

[
  {
    "COMPOUND": "CCOC(=O)[C@H](C)N[P@@](=O)(COCCn1cnc2c(OC)nc(N)nc21)OCc1ccccc1 (single isomer, unassigned; isomer 2) [AB12280 Isomer 2]",
    "CC50": "7.62 µM"
  }
]

Now examine the next entry.
Req: Give the reported CC50 for CCOC(=O)[C@H](C)N[P@](=O)(COCCn1cnc2c(OC)nc(N)nc21)OCc1ccccc1 (single isomer, unassigned; isomer 1) [AB12280 Isomer 1] (system: Hs27 cells).
Resp: 23.2 µM

====

Assay: Solubility in buffers, water and simulated vaginal fluid at 37° C.
Conditions: 37 °C, pH 6.8, aqueous buffer, thermodynamic from solid
PROPERTY_NAME: solubility at 2 h

Req: Quick check: solubility at 2 h of CCOC(=O)[C@H](C)N[P@](=O)(COCCn1cnc2c(OC)nc(N)nc21)OCc1ccccc1.O=C(O)/C=C/C(=O)O (single isomer, unassigned) [Compound III] ?
Resp: > 2 mg/mL
